# Test system: T-47D spheroids with HUVEC/MSC, viability
# Experimental Details: Anticancer human tumor T-47D cell line growth inhibition [PI3K];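 also: spheroids exposed to agents for seven days before reading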
# Condition Details: curve of first compound; second compound 0.1 µM
Readout Type: IC50

*Q* Returns the measured IC50 for the input compound. Input: CC(C)NCC(C(=O)N1CCN(c2ncnc3c2C(C)CC3O)CC1)c1ccc(Cl)cc1 (stereo unspecified) + CC(Nc1ccc2c(c1)OCCn1cc(N3C(=O)OCC3C(F)F)nc1-2)C(N)=O
*A* 3.89 µM

*Q* What does the data say about its IC50? Entry: Cn1cnc2c(F)c(Nc3ccc(Br)cc3Cl)c(C(=O)NOCCO)cc21 + CC(Nc1ccc2c(c1)OCCn1cc(N3C(=O)OCC3C(F)F)nc1-2)C(N)=O
*A* > 3 µM

*Q* Can you share its IC50? I mean this compound: CC1(C)CCC(Nc2ncc(C(F)(F)F)c(-c3c[nH]c4c(P(C)(C)=O)c(C#N)ccc34)n2)CN1 (stereo unspecified) + COc1c(OCCCN2CCOCC2)ccc2c3n(c(=NC(=O)c4cnc(N)nc4)nc12)CCN3
*A* < 0.0316 µM

*Q* Endpoint output: IC50 of CC1(C)CCC(Nc2ncc(C(F)(F)F)c(-c3c[nH]c4c(P(C)(C)=O)c(C#N)ccc34)n2)CN1 (stereo unspecified) + CC(Nc1ncnc2nc[nH]c12)c1cc2cccc(Cl)c2c(=O)n1-c1ccccc1 . Value?
*A* > 10 µM

*Q* I would be grateful if you could share the reported IC50 for Cn1cnc2c(F)c(Nc3ccc(Br)cc3Cl)c(C(=O)NOCCO)cc21 + COc1c(OCCCN2CCOCC2)ccc2c3n(c(=NC(=O)c4cnc(N)nc4)nc12)CCN3 .
*A* < 0.00949 µM

*Q* Find the recorded IC50 belonging to Cn1ncnc1[C@H]1c2n[nH]c(=O)c3cc(F)cc(c23)N[C@@H]1c1ccc(F)cc1 + COc1c(OCCCN2CCOCC2)ccc2c3n(c(=NC(=O)c4cnc(N)nc4)nc12)CCN3 and report it.
*A* < 0.000316 µM
